- System: MAP3K3
- SETUP CONDITIONS: concentration: 1 μM, replicates: in singlicate; n = 1;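 also: KINOMEscan kinase panel screen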
Task for the reader: assign each of the following molecules its reported %Inh.

Please report the recorded %Inh for Cc1ccc(C)c(NC(=O)NC2CCN(c3ccnc(Nc4ccc(F)cc4)n3)C2)c1 (stereo not shown) [GSK1379720] .
0%

Same lookup for O=C(Nc1cccc(Oc2ccc3nc(NC(=O)C4CC4)cn3n2)c1)c1ccccc1C(F)(F)F , please.
8%

Next: Cc1ccc(F)c(C(=O)Nc2cccc(-c3nn4ccccc4c3-c3ccnc(Nc4cccc(F)c4)n3)c2)c1F [GSK361061]
0%

Queued: O=C(Nc1cccc(-c2nn3ncccc3c2-c2ccnc(Nc3ccccc3)n2)c1)c1c(F)cccc1F [GSK198271]
0%

----------
- Test system: MLK3
- SETUP CONDITIONS: concentration: 1 μM, replicates: in singlicate; n = 1
MEASUREMENT NAME: %Inh (%)
Please give a number only; it is taken to be in %.

Recorded %Inh for O=C(Nc1n[nH]c2nc(-c3ccc(O)cc3)ccc12)C1CC1 with MLK3, please?
0

Would you kindly repeat that for O=C(O)C(F)(F)F.O=C(O)C(F)(F)F.O=c1[nH]ccc2nc(N[C@@H]3CCCNC3)nc(Nc3ccc(S(=O)(=O)N4CCOCC4)cc3)c12 ?
98.4

Consider next the molecule c1ccc(-c2cnc3nccnn23)cc1 in the same way.
0

Query Nc1ncc(-c2ccc3nccc(-c4ccncc4)c3c2)cc1S(=O)(=O)N1CCOCC1 next
0

Cool, now CC(C)(C)c1ccc2nccc(Nc3cccc(O)c3)c2c1
0

Same for CN1CCN(CCCNc2nccc(-c3c(-c4ccc(F)cc4)nn4cc(C(F)(F)F)ccc34)n2)CC1
0

Do the same for CCn1c(-c2nonc2N)nc2c(C#CC(C)(C)O)nc(OC[C@H](N)c3ccccc3)cc21 please
5

Also need CSc1cccc2c(-c3ccncn3)c(-c3ccc(F)cc3)nn12 , thanks.
12

----------
- Test system: CSNK1A1
- SETUP CONDITIONS: concentration: 1 μM, replicates: in singlicate; n = 1
Please go through the items and note down their %Inh.
Output spec: scalar in %, unitless text.

Report %Inh for Cn1cc(-c2ccc3c(c2)CCN3C(=O)Cc2cccc(Cl)c2)c2c(N)ncnc21 please.
20

Consider next the compound COC(=O)Nc1nc2cc(Oc3ccc(NC(=O)Nc4cc(C(F)(F)F)ccc4F)cn3)ccc2[nH]1.Cl.Cl in the same way.
0

Now try COc1cccc(-c2ccc3c(NC(=O)C4CC4)n[nH]c3n2)c1 .
0

Let us now turn to O=C(Nc1cccc(Oc2ccc3nc(NC(=O)C4CC4)cn3n2)c1)c1ccccc1C(F)(F)F
24

----------
- Tested on: TESK1
- SETUP CONDITIONS: concentration: 1 μM, replicates: in singlicate; n = 1
MEASUREMENT NAME: %Inh

Endpoint output: %Inh of Cc1ccc(C(=O)N2CC[C@@H](O)C2)cc1-n1c(C)cc(OCc2ccc(F)cc2F)c(Br)c1=O . Value?
0%

Also need Clc1ccc(-c2nn3ncccc3c2-c2ccnc(Nc3ccc4c(c3)OCCO4)n2)cc1 [GW829116] , thanks.
11%

Also Cl.NC(=O)c1cccc(Nc2nccc(Nc3ccc(Oc4c(Cl)cccc4Cl)c(Cl)c3)n2)c1 [GW659009] , if possible.
0%

What do you get for CN(C)Cc1ccc(-c2ccc3c(Nc4ccc(Oc5ccccn5)cc4)ccnc3c2)o1 [GW567148] ?
0%

What would you report for O=C(Nc1cccc(Oc2ccc3nc(NC(=O)C4CC4)cn3n2)c1)c1ccccc1C(F)(F)F ?
17%

What would you report for COC(=O)Nc1nc2cc(Oc3ccc(NC(=O)Nc4cc(C(F)(F)F)ccc4F)cn3)ccc2[nH]1.Cl.Cl [GW681170] ?
10%

Now give it for Nc1ncc(-c2ccc3nccc(-c4ccncc4)c3c2)cc1S(=O)(=O)N1CCOCC1 [GSK1627798] too.
2%

Please give the result for COc1ccc(-c2coc3ccc(-c4nnc(SCc5ccc(OC)c(C(F)(F)F)c5)o4)cc23)cc1 too.
0%

Next: CN(c1ccc(NC(=O)Nc2cc(C(F)(F)F)ccc2F)cc1)c1ccnc(Nc2ccc(S(N)(=O)=O)cc2)n1 [GW809893]
75%

And for Cl.Cl.NCC(C(=O)Nc1cc(Br)c(-c2ccnc3[nH]ccc23)s1)c1ccccc1 (stereo not drawn) [GSK1269851] ?
0%

Would you mind doing Nc1ncnc2c1nc(-c1ccccc1)n2-c1ccccc1 [SKF-97293] as well?
19%

Also, Cc1ccc(C(=O)Nc2ccc(Nc3ccnc4cc(-c5nccs5)ccc34)cc2O)cc1.Cl [GW494702] please.
15%

Likewise for CCS(=O)(=O)c1ccc(OC)c(Nc2nccc(-c3c(-c4cccc(NC(=O)c5c(F)cccc5F)c4)nn4ncccc34)n2)c1 [GSK326180] ?
2%

Subsequent entry: CC(C)(C)c1ccc2nccc(Nc3cccc(O)c3)c2c1 [GW856795]
0%

Further, for O=C(Nc1n[nH]c2nc(-c3ccc(O)cc3)ccc12)C1CC1 [SB-710363] ?
0%

Item: Fc1ccc(-c2ncn(C3CCNCC3)c2-c2ccnc(Oc3ccc(-c4ccccc4)cc3)n2)cc1 [SB-245391]
19%

// same read-out, input: COc1cccc(C2=C(Nc3ccc(Cl)c(C(=O)O)c3)C(=O)NC2=O)c1 [SB-390769]
20%

Cool, now Nc1ncc(-c2cccnc2)c2scc(-c3ccc4c(c3)CCN4C(=O)Cc3ccccc3)c12 [GSK683281]
33%

Subsequent entry: COc1ccc(Nc2nccc(N3CCC(NC(=O)Nc4cccc(OC)c4)C3)n2)cc1 (stereo not drawn) [GSK1379742]
36%

Follow-up item: Cn1cc(-c2ccc3c(c2)CCN3C(=O)Cc2cccc(F)c2)c2c(N)ncnc21 [GSK2603358]
39%

Entry O=C(O)C(F)(F)F.O=C(O)C(F)(F)F.O=c1[nH]ccc2nc(N[C@@H]3CCCNC3)nc(Nc3ccc(S(=O)(=O)N4CCOCC4)cc3)c12 [GSK2177277] please
0%

Now this one: Cc1ccc(F)c(C(=O)Nc2cccc(-c3nn4ccccc4c3-c3ccnc(Nc4cccc(F)c4)n3)c2)c1F [GSK361061]
28%

Same again, this time with COc1cc2c(cc1OCCN1CCNCC1)ncc1c3ccc(C#N)cc3[nH]c21
2%

Repeat for the following compound: COc1ccc(CNC(=O)NC2CCN(c3ccnc(Nc4ccc(F)cc4)n3)CC2)cc1 [GSK1379788]
2%

Then this compound: CN1CCN(CCCNc2nccc(-c3c(-c4ccc(F)cc4)nn4cc(C(F)(F)F)ccc34)n2)CC1 [GW621581]
10%

Again, but for Oc1cc(Nc2ccnc3cc(I)ccc23)ccc1F [GW552771]
13%

Same question, COc1cccc(NC(=O)NC2CCN(c3ccnc(Nc4cc(OC)c(OC)c(OC)c4)n3)C2)c1 (stereo not drawn) [GSK1379763] this time
1%

Same again, this time with COc1cccc(C(=O)Nc2cccc(Oc3ccc4nc(NC(=O)C5CC5)cn4n3)c2)c1
0%

One more compound: CCCCc1nn2ncccc2c1-c1ccnc(Nc2ccc(N3CCN(C)CC3)cc2)n1 [GW684941]
39%

Record: Cn1cc(-c2ccc3c(c2)CCN3C(=O)Cc2cccc(Cl)c2)c2c(N)ncnc21 [GSK2606590]
52%

Next: Cc1ccc(S(=O)(=O)Nc2ccc(Nc3nccc(Nc4cccc5[nH]ncc45)n3)cc2)cc1 [GSK581271]
13%

Try the compound COc1cc(Nc2nccc(N3CCC(NC(=O)c4cc5ccccc5s4)C3)n2)cc(OC)c1OC (stereo not drawn) [GSK1379760]
9%

Query Cn1cc(-c2[nH]c3cc(NC(=O)[C@H](N)C4CCCCC4)cc4c3c2C=NNC4=O)cn1 next
15%
